Entry source: ChEMBL document CHEMBL4715934

measured-target: UniProt:P14902
protocol-description: Inhibition of IDO1 in recombinant IFN-gamma induced human HeLa cells incubated for 18 hrs by fluorescence microplate reader assay
readout-type: IC50 (nM)
Kindly answer with a numeric value in nM, unit omitted.

Input line: Reported IC50 for COCC(Nc1nnc(-c2ccc(OC)cc2)o1)[C@H]1CC[C@@H](c2ccnc3ccc(F)cc32)CC1 (stereo partly drawn) : what is it?
Output line: 3

Input line: Reported IC50 for CCC(c1nc2ccc(Cl)cc2[nH]1)[C@H]1CC[C@@H](c2ccnc3ccc(F)cc32)CC1 (stereo partly drawn) : what is it?
Output line: 2

Input line: Reported IC50 for CCC(Nc1nnc(-c2ccc(OC)cc2)o1)[C@H]1CC[C@@H](c2ccnc3c(F)cc(F)cc32)CC1 (stereo partly drawn) : what is it?
Output line: 3

* * *

protocol-description: Metabolic stability assessed as human CYP-mediated metabolism by measuring half life
Assay type: ADME
readout-type: half-life (min)
Kindly answer with a numeric value in min, unit omitted.

Input line: Reported half-life for CCC(c1nc2ncc(Cl)cc2[nH]1)[C@H]1CC[C@@H](c2ccnc3ccc(C(F)(F)F)cc32)CC1 (stereo partly specified) : what is it?
Output line: 54

* * *

protocol-description: Permeability at pH 5.5 by PAMPA
Format: ADME
experimental-parameters: read-out: permeability
readout-type: Papp (×10⁻⁶ cm/s)
Kindly answer with a numeric value in ×10⁻⁶ cm/s, unit omitted.

Input line: Reported Papp for CCC(c1nc2ncc(Cl)cc2[nH]1)[C@H]1CC[C@@H](c2ccnc3ccc(C(F)(F)F)cc32)CC1 (stereo partly specified) : what is it?
Output line: 238

* * *

protocol-description: Permeability at pH 7.4 by PAMPA
Assay type: ADME
experimental-parameters: read-out: permeability
readout-type: Papp
Express your answer as a number followed by its unit.

Input line: Reported Papp for CCC(c1nc2ncc(Cl)cc2[nH]1)[C@H]1CC[C@@H](c2ccnc3ccc(C(F)(F)F)cc32)CC1 (stereo partly specified) : what is it?
Output line: 263 ×10⁻⁶ cm/s

* * *

measured-target: Indoleamine 2,3-dioxygenase 1 (Homo sapiens, UniProt P14902)
Sequence (P14902 whole entry): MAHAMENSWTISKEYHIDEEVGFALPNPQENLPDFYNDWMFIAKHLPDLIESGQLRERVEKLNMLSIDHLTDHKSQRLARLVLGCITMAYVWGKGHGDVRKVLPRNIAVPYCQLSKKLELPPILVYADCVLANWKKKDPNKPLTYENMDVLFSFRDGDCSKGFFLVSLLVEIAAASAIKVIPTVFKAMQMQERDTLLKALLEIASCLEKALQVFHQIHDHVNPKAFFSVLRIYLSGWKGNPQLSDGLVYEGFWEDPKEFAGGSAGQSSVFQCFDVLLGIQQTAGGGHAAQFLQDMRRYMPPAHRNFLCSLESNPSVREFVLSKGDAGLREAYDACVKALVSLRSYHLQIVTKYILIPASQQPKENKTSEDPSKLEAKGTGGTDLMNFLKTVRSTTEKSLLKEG
protocol-description: Inhibition of IDO1 in IFN-gamma/LPS induced human whole blood assessed as tryptophan/kynurenine level measured after 18 hrs by RapidFire mass spectrometry
Type: tissue-based
One threshold, 20 nM, splits the recorded IC50 values: lower ones are Condition met, equal or higher ones are Condition not met.

Input line: Identify whether the compound CCC(Nc1nnc(-c2ccc(OC)cc2)o1)[C@H]1CC[C@@H](c2ccnc3ccc(C(F)(F)F)cc32)CC1 (some centres not stated) records IC50 below 20 nM.
Output line: Condition not met

Input line: Identify whether the compound CCC(Nc1nnc(-c2ccc(OC)cc2)o1)[C@H]1CC[C@@H](c2ccnc3ccc(F)cc32)CC1 (some centres not stated) records IC50 below 20 nM.
Output line: Condition met

Input line: Identify whether the compound C[C@@H](c1nc2ccc(Cl)cc2[nH]1)[C@H]1CC[C@@H](c2ccnc3ccc(F)cc32)CC1 records IC50 below 20 nM.
Output line: Condition not met

Input line: Identify whether the compound CCC(c1nc2ncc(Cl)cc2[nH]1)[C@H]1CC[C@@H](c2ccnc3ccc(F)cc32)CC1 (some centres not stated) records IC50 below 20 nM.
Output line: Condition met

Input line: Identify whether the compound CCC(Nc1nnc(-c2ccc(OC)cc2)o1)[C@H]1CC[C@H](Oc2ccnc3ccccc23)CC1 (some centres not stated) records IC50 below 20 nM.
Output line: Condition not met

Input line: Identify whether the compound CCC(c1nc2ncc(Cl)cc2[nH]1)[C@H]1CC[C@@H](c2ccnc3ccc(C(F)(F)F)cc32)CC1 (some centres not stated) records IC50 below 20 nM.
Output line: Condition not met

Input line: Identify whether the compound CCC(c1nc2ccc(Cl)cc2[nH]1)[C@H]1CC[C@H](Oc2ccnc3ccccc23)CC1 (some centres not stated) records IC50 below 20 nM.
Output line: Condition not met

Input line: Identify whether the compound COCC(Nc1nnc(-c2ccc(OC)cc2)o1)[C@H]1CC[C@@H](c2ccnc3ccc(F)cc32)CC1 (some centres not stated) records IC50 below 20 nM.
Output line: Condition not met

Input line: Identify whether the compound CCOCC(Nc1nnc(-c2ccc(OC)cc2)o1)[C@H]1CC[C@@H](c2ccnc3ccc(C(F)(F)F)cc32)CC1 (some centres not stated) records IC50 below 20 nM.
Output line: Condition not met

Input line: Identify whether the compound C[C@@H](c1nc2ncc(Cl)cc2[nH]1)[C@H]1CC[C@@H](c2ccnc3ccc(F)cc32)CC1 records IC50 below 20 nM.
Output line: Condition not met

Input line: Identify whether the compound CCC(Nc1nnc(-c2ccc(OC)cc2)o1)[C@H]1CC[C@@H](c2ccnc3c(F)cc(F)cc32)CC1 (some centres not stated) records IC50 below 20 nM.
Output line: Condition met

Input line: Identify whether the compound CCC(c1nc2ccc(Cl)cc2[nH]1)[C@H]1CC[C@@H](c2ccnc3ccc(F)cc32)CC1 (some centres not stated) records IC50 below 20 nM.
Output line: Condition met

* * *

protocol-description: Metabolic stability in mouse liver microsomes assessed as parent compound remaining at 0.5 uM after 10 mins
Type: ADME, Microsome
experimental-parameters: read-out: Stabilty
Exercise: state measured remaining at 10 min, 0.5 µM for each of the compounds provided.
Kindly answer with a numeric value in %, unit omitted.

Input line: Reported remaining at 10 min, 0.5 µM for CCOCC(Nc1nnc(-c2ccc(OC)cc2)o1)[C@H]1CC[C@@H](c2ccnc3ccc(C(F)(F)F)cc32)CC1 (some centres undefined) : what is it?
Output line: 41

Input line: Reported remaining at 10 min, 0.5 µM for CCC(Nc1nnc(-c2ccc(OC)cc2)o1)[C@H]1CC[C@@H](c2ccnc3ccc(C(F)(F)F)cc32)CC1 (some centres undefined) : what is it?
Output line: 39

Input line: Reported remaining at 10 min, 0.5 µM for CCC(Nc1nnc(-c2ccc(OC)cc2)o1)[C@H]1CC[C@H](Oc2ccnc3ccccc23)CC1 (some centres undefined) : what is it?
Output line: 39

Input line: Reported remaining at 10 min, 0.5 µM for C[C@@H](c1nnc(-c2ccc(Cl)cc2)o1)[C@H]1CC[C@@H](c2ccnc3ccc(F)cc32)CC1 : what is it?
Output line: 41
